Biological target: UniProt:P9WQA3
Sequence (P9WQA3 whole entry): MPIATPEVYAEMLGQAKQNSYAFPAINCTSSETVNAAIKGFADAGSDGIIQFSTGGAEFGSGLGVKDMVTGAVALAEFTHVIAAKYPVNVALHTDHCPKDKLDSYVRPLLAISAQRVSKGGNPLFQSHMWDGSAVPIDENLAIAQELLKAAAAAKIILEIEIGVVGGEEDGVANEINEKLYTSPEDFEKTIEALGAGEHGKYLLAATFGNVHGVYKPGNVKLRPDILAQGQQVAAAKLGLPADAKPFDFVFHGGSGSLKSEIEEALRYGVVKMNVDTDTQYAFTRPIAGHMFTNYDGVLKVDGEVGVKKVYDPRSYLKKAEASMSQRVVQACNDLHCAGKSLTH
experimental-readout: Ki

Q) Specify Ki for O=C(CO)COP(=O)(O)O [DHAP, dihydroxyacetone phosphate] and stop.
A) 238 µM

Value source: paper PMC4170518
